- test summary: in vitro digestibility: hydrolysis with pancreatic lipase
- Type: in vitro ADME, porcine
- measurement parameters: pig, pH 7.1 buffer, 37° C., same conditions as triolein control
observable: metabolised (%)
# value in %; strip the unit string

Data point: CCCCCCCC/C=C\CCCCCCCC(=O)NC(C)(COC(=O)CCCCCCC/C=C\CCCCCCCC)COC(=O)CCCCCCC/C=C\CCCCCCCC ; metabolised = 10

compound CCCCCCCC/C=C\CCCCCCCC(=O)NC(COC(=O)CCCCCCC/C=C\CCCCCCCC)COC(=O)CCCCCCC/C=C\CCCCCCCC [Example 3, 1,3-Bis(oleoyloxy)propyl 2-oleamide] , metabolised observed: 50

The reported metabolised of the compound CCCCCCCC/C=C\CCCCCCCC(=O)NCC(COC(=O)CCCCCCC/C=C\CCCCCCCC)OC(=O)CCCCCCC/C=C\CCCCCCCC (stereo not drawn) [Example 2, 2,3-Bis(oleyoyloxy)propyl oleamide] was 50
